System: HCC-827
method: relative viability (nuclei count vs DMSO), 5 days (fraction); higher = more cells survive
conditionParameters: first compound 0.06325 µM
observationType: relative viability
Returns: the value as a bare number; no unit string appended.

Task: Would you mind telling me what relative viability value was observed for CCNC(=O)c1noc(-c2cc(C(C)C)c(O)cc2O)c1-c1ccc(CN2CCOCC2)cc1 [Luminespib] + CC(=O)Nc1cccc(-n2c(=O)n(C3CC3)c(=O)c3c(Nc4ccc(I)cc4F)n(C)c(=O)c(C)c32)c1 [Trametinib] (partner 0.02 µM) ?
Result: 0.154

Task: Would you mind telling me what relative viability value was observed for CCNC(=O)c1noc(-c2cc(C(C)C)c(O)cc2O)c1-c1ccc(CN2CCOCC2)cc1 [Luminespib] + COc1cccc2cc(-c3nc([C@H]4CC[C@H](C(=O)O)CC4)n4ncnc(N)c34)[nH]c12 [OSI-027] (partner 0.5 µM) ?
Result: 0.354

Task: Would you mind telling me what relative viability value was observed for CCNC(=O)c1noc(-c2cc(C(C)C)c(O)cc2O)c1-c1ccc(CN2CCOCC2)cc1 [Luminespib] + NC(=O)Nc1cc(-c2cccc(F)c2)sc1C(=O)N[C@H]1CCCNC1 [AZD7762] (partner 0.2 µM) ?
Result: 0.124

Task: Would you mind telling me what relative viability value was observed for CCNC(=O)c1noc(-c2cc(C(C)C)c(O)cc2O)c1-c1ccc(CN2CCOCC2)cc1 [Luminespib] + Nc1nc2[nH]cc(CCc3ccc(C(=O)N[C@@H](CCC(=O)O)C(=O)O)cc3)c2c(=O)[nH]1 [Pemetrexed] (partner 0.2 µM) ?
Result: 0.159

Task: Would you mind telling me what relative viability value was observed for CCNC(=O)c1noc(-c2cc(C(C)C)c(O)cc2O)c1-c1ccc(CN2CCOCC2)cc1 [Luminespib] + CC(C)C[C@H](NC(=O)[C@H](Cc1ccccc1)NC(=O)c1cnccn1)B(O)O [Bortezomib] (partner 0.002 µM) ?
Result: 1.22

Task: Would you mind telling me what relative viability value was observed for CCNC(=O)c1noc(-c2cc(C(C)C)c(O)cc2O)c1-c1ccc(CN2CCOCC2)cc1 [Luminespib] + Cc1nc(NC(=O)N2CCC[C@H]2C(N)=O)sc1-c1ccnc(C(C)(C)C(F)(F)F)c1 [Alpelisib] (partner 2 µM) ?
Result: 0.976

Task: Would you mind telling me what relative viability value was observed for CCNC(=O)c1noc(-c2cc(C(C)C)c(O)cc2O)c1-c1ccc(CN2CCOCC2)cc1 [Luminespib] + Cc1nc(Nc2ncc(C(=O)Nc3c(C)cccc3Cl)s2)cc(N2CCN(CCO)CC2)n1 [Dasatinib] (partner 0.075 µM) ?
Result: 0.259

Task: Would you mind telling me what relative viability value was observed for CCNC(=O)c1noc(-c2cc(C(C)C)c(O)cc2O)c1-c1ccc(CN2CCOCC2)cc1 [Luminespib] + O=C(c1cc(Cc2n[nH]c(=O)c3ccccc23)ccc1F)N1CCN(C(=O)C2CC2)CC1 [Olaparib] (partner 8 µM) ?
Result: 0.143
